B1: peptide HD2 (from tick evasin EVA4) / CCL4 (biotinylated, synthetic) (parent)
chain 1: EEDDYTAYAPLTCYFT
chain 2: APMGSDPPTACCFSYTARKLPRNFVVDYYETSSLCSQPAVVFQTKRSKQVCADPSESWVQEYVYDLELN

variants of: B1; conditions: with CCL4 (biotinylated, synthetic); scale: log2
Metric Name: enrichment

Solved cases below.
>>> result("chain 1 P10R")
-8.65
>>> result("chain 1 P10I")
-8.01
>>> result("chain 1 Y8Q")
-5.93
>>> result("chain 1 A9D")
-7.8

In one line, give reported enrichment of the entry chain 1 Y8G .
-8.28
